Measured Specific activity (pM hr-1 (mg of protein)-1) by item
- study target: Folylpolyglutamate synthase, mitochondrial (Mus musculus) (UniProt P48760)
- Sequence (whole entry): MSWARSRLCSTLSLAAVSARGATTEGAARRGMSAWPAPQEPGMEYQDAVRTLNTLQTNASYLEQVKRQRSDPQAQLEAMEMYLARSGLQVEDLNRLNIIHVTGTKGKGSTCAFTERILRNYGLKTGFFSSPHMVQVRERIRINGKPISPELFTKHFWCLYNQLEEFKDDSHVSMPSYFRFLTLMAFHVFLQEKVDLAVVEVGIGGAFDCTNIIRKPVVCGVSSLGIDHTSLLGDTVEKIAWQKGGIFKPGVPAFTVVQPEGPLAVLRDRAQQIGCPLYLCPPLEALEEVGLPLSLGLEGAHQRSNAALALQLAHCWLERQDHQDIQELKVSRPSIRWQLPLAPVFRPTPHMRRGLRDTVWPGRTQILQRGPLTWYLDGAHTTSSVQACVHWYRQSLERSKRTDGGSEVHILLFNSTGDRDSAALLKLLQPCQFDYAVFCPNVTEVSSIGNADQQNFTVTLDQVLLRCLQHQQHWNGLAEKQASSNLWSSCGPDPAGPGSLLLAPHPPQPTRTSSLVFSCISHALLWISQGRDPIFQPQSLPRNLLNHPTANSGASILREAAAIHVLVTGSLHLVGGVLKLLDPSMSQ
- assay overview: Specific activity of L1210 Folyl-polyglutamate synthase
measured parameter: Specific activity (pM hr-1 (mg of protein)-1)

compound: Nc1nc(N)c2nc(CNc3ccc(C(=O)N[C@@H](CCC(=O)O)C(=O)O)cc3)cnc2n1
number: 1.91
//
compound: Nc1nc(N)c2nc(CNc3ccc(C(=O)NC(CCC(=O)O)C(=O)O)c4ccccc34)cnc2n1 (centres undefined)
number: 0.41
//
compound: CN(Cc1cnc2nc(N)nc(N)c2n1)c1ccc(C(=O)NC(CCC(=O)O)C(=O)O)c2ccccc12 (centres undefined)
number: 0.18
//
compound: CN(Cc1cnc2nc(N)nc(N)c2n1)c1ccc(C(=O)N[C@@H](CCC(=O)O)C(=O)O)cc1 [METHOTREXATE]
number: 0.38

----------
- study target: Dihydrofolate reductase (Rattus norvegicus)
- Sequence (Q920D2 whole entry): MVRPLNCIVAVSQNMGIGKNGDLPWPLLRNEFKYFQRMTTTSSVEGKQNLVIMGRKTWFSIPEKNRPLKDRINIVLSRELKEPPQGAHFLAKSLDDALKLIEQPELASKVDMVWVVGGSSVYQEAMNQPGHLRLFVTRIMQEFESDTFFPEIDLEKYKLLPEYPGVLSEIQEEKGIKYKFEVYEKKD
measured parameter: IC50 (pM)

compound: CN(Cc1cnc2nc(N)nc(N)c2n1)c1ccc(C(=O)NC(CCC(=O)O)C(=O)O)c2ccccc12 (stereo unspecified)
measured parameter: IC50
number: 2.5

----------
- Test system: Folyl-polyglutamate synthase
- assay overview: Michaelis-Menten constant was determined against CCRF-CEM Folyl-polyglutamate synthase
- Assay type: ADME
- settings: human, folylpolyglutamate synthase from CCRF-CEM cells

compound: Nc1nc(N)c2nc(CNc3ccc(C(=O)N[C@@H](CCC(=O)O)C(=O)O)cc3)cnc2n1
unit name: µM
Km: 4.1
//
compound: CN(Cc1cnc2nc(N)nc(N)c2n1)c1ccc(C(=O)N[C@@H](CCC(=O)O)C(=O)O)cc1 [METHOTREXATE]
unit name: µM
Km: 42

----------
- Tested on: HL-60
- assay overview: Tested for the ability to inhibit growth in vitro against HL60
- Assay type: functional, cell-based
- settings: Homo sapiens
measured parameter: log10 IC50 (log10 of the value in nM)

compound: Nc1nc(N)c2cc(CNc3ccc(C(=O)NC(CCC(=O)O)C(=O)O)c4ccccc34)ccc2n1 (centres undefined)
measured parameter: log10 IC50
number: -0.19
--
compound: Cc1c(CNc2ccc(C(=O)NC(CCC(=O)O)C(=O)O)c3ccccc23)cnc2nc(N)nc(N)c12 (centres undefined)
measured parameter: log10 IC50
number: -0.13
--
compound: CN(Cc1cnc2nc(N)nc(N)c2n1)c1ccc(C(=O)N[C@@H](CCC(=O)O)C(=O)O)cc1 [METHOTREXATE]
measured parameter: log10 IC50
number: 0.91
--
compound: Nc1nc(N)c2nc(CNc3ccc(C(=O)NC(CCC(=O)O)C(=O)O)c4ccccc34)cnc2n1 (centres undefined)
measured parameter: log10 IC50
number: 0.66
--
compound: CN(Cc1cnc2nc(N)nc(N)c2c1)c1ccc(C(=O)NC(CCC(=O)O)C(=O)O)c2ccccc12 (centres undefined)
measured parameter: log10 IC50
number: 0.18
--
compound: CN(Cc1cnc2nc(N)nc(N)c2n1)c1ccc(C(=O)NC(CCC(=O)O)C(=O)O)c2ccccc12 (centres undefined)
measured parameter: log10 IC50
number: 0.52
--
compound: Cc1c(CN(C)c2ccc(C(=O)NC(CCC(=O)O)C(=O)O)c3ccccc23)cnc2nc(N)nc(N)c12 (centres undefined)
measured parameter: log10 IC50
number: -0.25
--
compound: Nc1nc(N)c2cc(CNc3ccc(C(=O)NC(CCC(=O)O)C(=O)O)c4c3CCCC4)cnc2n1 (centres undefined)
measured parameter: log10 IC50
number: 1.23
--
compound: Nc1nc(N)c2cc(CNc3ccc(C(=O)NC(CCC(=O)O)C(=O)O)c4ccccc34)cnc2n1 (centres undefined)
measured parameter: log10 IC50
number: 0.15

----------
- study target: Dihydrofolate reductase (Pneumocystis carinii)
- Sequence (P16184 whole entry): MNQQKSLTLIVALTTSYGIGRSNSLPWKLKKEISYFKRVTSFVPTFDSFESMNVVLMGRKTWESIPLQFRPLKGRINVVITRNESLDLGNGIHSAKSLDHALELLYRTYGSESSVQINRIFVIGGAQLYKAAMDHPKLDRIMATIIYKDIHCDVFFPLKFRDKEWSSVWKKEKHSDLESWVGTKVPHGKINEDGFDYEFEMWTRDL
- assay overview: Tested for inhibition against Dihydrofolate reductase from Pneumocystis carinii

compound: Nc1nc(N)c2cc(CNc3ccc(C(=O)NC(CCC(=O)O)C(=O)O)c4ccccc34)cnc2n1 (stereo unspecified)
study target: Dihydrofolate reductase (Pneumocystis carinii)
IC50 / pM: 0.53

----------
- assay overview: Activity relative to saturating aminopterine at 100 uM against CCRF-CEM Folyl-polyglutamate synthetase
- Assay type: ADME
- settings: human
Relative Vmax reference

molecule: Cc1c(CN(C)c2ccc(C(=O)NC(CCC(=O)O)C(=O)O)c3ccccc23)cnc2nc(N)nc(N)c12 (configuration not stated)
Relative Vmax: 0.04
--
molecule: Nc1nc(N)c2nc(CNc3ccc(C(=O)N[C@@H](CCC(=O)O)C(=O)O)cc3)cnc2n1
Relative Vmax: 1
--
molecule: Nc1nc(N)c2cc(CNc3ccc(C(=O)NC(CCC(=O)O)C(=O)O)c4ccccc34)cnc2n1 (configuration not stated)
Relative Vmax: 0.01
--
molecule: Cc1c(CNc2ccc(C(=O)NC(CCC(=O)O)C(=O)O)c3ccccc23)cnc2nc(N)nc(N)c12 (configuration not stated)
Relative Vmax: 0.02
--
molecule: Nc1nc(N)c2cc(CNc3ccc(C(=O)NC(CCC(=O)O)C(=O)O)c4c3CCCC4)cnc2n1 (configuration not stated)
Relative Vmax: 0.01
--
molecule: Nc1nc(N)c2nc(CNc3ccc(C(=O)NC(CCC(=O)O)C(=O)O)c4ccccc34)cnc2n1 (configuration not stated)
Relative Vmax: 0.03
--
molecule: CN(Cc1cnc2nc(N)nc(N)c2n1)c1ccc(C(=O)NC(CCC(=O)O)C(=O)O)c2ccccc12 (configuration not stated)
Relative Vmax: 0.27

----------
- study target: Dihydrofolate reductase (Mus musculus, UniProt P00375)
- Sequence (P00375 whole entry): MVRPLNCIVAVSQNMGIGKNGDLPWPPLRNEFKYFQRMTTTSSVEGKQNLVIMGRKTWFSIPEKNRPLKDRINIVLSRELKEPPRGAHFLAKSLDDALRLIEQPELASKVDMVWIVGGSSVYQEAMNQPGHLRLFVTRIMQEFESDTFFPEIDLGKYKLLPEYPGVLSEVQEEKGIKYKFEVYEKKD
- assay overview: Inhibitory activity of Dihydrofolate reductase in L1210 cells
pKi: −log10 of the molar value.
pKi overview
measured parameter: pKi

molecule: Cc1c(CNc2ccc(C(=O)NC(CCC(=O)O)C(=O)O)c3ccccc23)cnc2nc(N)nc(N)c12 (centres undefined)
number: 11.29
//
molecule: Nc1nc(N)c2cc(CNc3ccc(C(=O)NC(CCC(=O)O)C(=O)O)c4c3CCCC4)cnc2n1 (centres undefined)
number: 10.88
//
molecule: Nc1nc(N)c2cc(CNc3ccc(C(=O)NC(CCC(=O)O)C(=O)O)c4ccccc34)cnc2n1 (centres undefined)
number: 11.44
//
molecule: CN(Cc1cnc2nc(N)nc(N)c2n1)c1ccc(C(=O)NC(CCC(=O)O)C(=O)O)c2ccccc12 (centres undefined)
number: 11.28

----------
- study target: Dihydrofolate reductase (Mus musculus)
- assay overview: Inhibitory activity of Dihydrofolate reductase in L1210 cells
pKi: −log10 of the molar value.
measured parameter: pKi

compound: Nc1nc(N)c2nc(CNc3ccc(C(=O)NC(CCC(=O)O)C(=O)O)c4ccccc34)cnc2n1 (stereo not drawn)
measured parameter: pKi
number: 11.34
//
compound: Nc1nc(N)c2cc(CNc3ccc(C(=O)NC(CCC(=O)O)C(=O)O)c4ccccc34)ccc2n1 (stereo not drawn)
measured parameter: pKi
number: 11.28
//
compound: Cc1c(CN(C)c2ccc(C(=O)NC(CCC(=O)O)C(=O)O)c3ccccc23)cnc2nc(N)nc(N)c12 (stereo not drawn)
measured parameter: pKi
number: 11.32

These measurements were taken from ChEMBL document CHEMBL1126566.
